target: human TPO receptor (hTPOR) (Homo sapiens); assay: Proliferation of TPO dependent BaF/hTPOR cells, WST-1, thrombopoietic activity ED50 (Test Example 3); settings: 20 h incubation then WST-1 4 h, absorbance at 450 nm
Assignment: determine reported pEC50 for the given compounds.
One number for each entry, as −log10 of the molar value.

The following compounds have reported results that may help.
Entry under test: COC(=O)C#Cc1ccc(C(=O)Nc2nc(-c3ccc(Cl)c(Cl)c3)cs2)cc1OC [Compound L-3] . Its pEC50 was 6.49

Entry under test: CC(=Cc1ccc(C(=O)Nc2nc(-c3ccc(Cl)c(Cl)c3)cs2)cc1)C(=O)N(C)C [Compound B-5] . Its pEC50 was 6.91

Entry under test: Cc1sc(NC(=O)c2ccc(/C=C(\Cl)C(=O)O)cc2)nc1-c1cccc(C(F)(F)F)c1F [Compound J-12] . Its pEC50 was 6.97

Entry under test: CCOC(=O)/C(Cl)=C/c1ccc(C(=O)Nc2nc(-c3ccc(F)c(F)c3)cs2)cc1 [Compound A-35] . Its pEC50 was 7.02

Entry under test: O=C(O)/C(Cl)=C/c1ccc(C(=O)Nc2nc(-c3ccc(F)c(Cl)c3)cs2)cc1 [Compound A-75] . Its pEC50 was 7.14

Parameters: items (list). Returns: pEC50 for each item.
1. O=C(Nc1nc(-c2ccc(Cl)c(Cl)c2)cs1)c1ccc(CC(F)C(=O)O)cc1 (stereo not shown) [Compound G-6]
2. C/C(=C\c1ccc(C(=O)Nc2nc(-c3ccc(Cl)c(Cl)c3)cs2)cc1)C(=O)NCc1cccs1 [Compound B-15]
3. CCCCCCc1cccc(-c2csc(NC(=O)c3ccc(/C=C(\Cl)C(=O)O)cc3)n2)c1F [Compound A-93]
4. CC(=O)NNC(=O)/C(C)=C/c1ccc(C(=O)Nc2nc(-c3ccc(Cl)c(Cl)c3)cs2)cc1 [Compound B-43]
5. O=C(O)/C(F)=C/c1ccc(C(=O)Nc2nc(-c3ccc(Cl)c(Cl)c3)cs2)cc1 [Compound A-43]
6. O=C(O)/C(Cl)=C/c1ccc(C(=O)Nc2nc(-c3ccc4c(c3)CCC4)cs2)cc1 [Compound A-73]
7. CCCCOc1ccc(-c2csc(NC(=O)c3ccc(/C=C(\Cl)C(=O)O)cc3)n2)cc1 [Compound A-59]

Response:
6.43
6.71
8.10
6.52
7.15
7.12
6.79

----------
biological target: human TPO receptor (hTPOR) (Homo sapiens, UniProt P40238); assay: Proliferation of TPO dependent BaF/hTPOR cells, WST-1, thrombopoietic activity ED50 (Test Example 3); settings: 20 h incubation then WST-1 4 h, absorbance at 450 nm
observation_type: pEC50
Answers are plain numbers, as −log10 of the molar value.

The following compounds have reported results that may help.
Entry under test: `O=C(O)/C(Cl)=C/c1ccc(C(=O)Nc2nc(-c3ccc(F)c(-c4ccccc4)c3F)cs2)cc1` . Its pEC50 was 7.14

Entry under test: `CNC(=O)/C=C/c1ccc(C(=O)Nc2nc(-c3ccc(Cl)c(Cl)c3)cs2)cc1` . Its pEC50 was 6.81

Entry under test: `C/C(=C\c1ccc(C(=O)Nc2nc(-c3ccc(C(F)(F)F)cc3)cs2)cc1)C(=O)O` . Its pEC50 was 7.01

***
Entry under test: `CC(=Cc1ccc(C(=O)Nc2nc(-c3ccc(Cl)c(Cl)c3)cs2)cc1)S(=O)(=O)NC(C)(C)C` . Its pEC50 was 6.84

----------
Assignment: determine reported EC50 for the given molecules.
target: human TPO receptor (hTPOR) (Homo sapiens, UniProt P40238); assay: Proliferation of TPO dependent BaF/hTPOR cells, WST-1, thrombopoietic activity ED50 (Test Example 3); details: 20 h incubation then WST-1 4 h, absorbance at 450 nm

The following molecules have reported results that may help.
Entry under test: `CCOC(=O)/C(C)=C/c1ccc(C(=O)Nc2nc(-c3ccc(F)cc3)cs2)cc1` . Its EC50 was 337 nM

Entry under test: `CONC(=O)/C(C)=C/c1ccc(C(=O)Nc2nc(-c3ccc(Cl)c(Cl)c3)cs2)cc1` . Its EC50 was 213 nM

Entry under test: `C/C(=C\c1ccc(C(=O)Nc2nc(-c3ccc(Cl)c(Cl)c3)cs2)cc1)C(=O)Nc1nccs1` . Its EC50 was 236 nM

Entry under test: `Cc1ccc(-c2csc(NC(=O)c3ccc(/C=C(\Cl)C(=O)O)cc3)n2)c(F)c1` . Its EC50 was 89 nM

Entry under test: `CCNC(=O)C(C)=Cc1ccc(C(=O)Nc2nc(-c3ccc(Cl)c(Cl)c3)cs2)cc1` . Its EC50 was 84 nM

Entry under test: `C/C(=C\c1ccc(C(=O)Nc2nc(-c3ccc(Cl)c(Cl)c3)cs2)cc1)C(=O)NC(C)(C)C` . Its EC50 was 729 nM

Entry under test: `O=C(O)/C(Cl)=C/c1ccc(C(=O)Nc2nc(-c3ccc4c(c3)CCO4)cs2)cc1` . Its EC50 was 472 nM

Entry under test: `COC(=O)C#Cc1ccc(C(=O)Nc2nc(-c3ccc(Cl)c(Cl)c3)cs2)cc1` . Its EC50 was 208 nM

Parameters: items (list). Returns: EC50 for each item.
1. CCCCc1cccc(-c2csc(NC(=O)c3ccc(/C=C(\Cl)C(=O)O)cc3)n2)c1
2. C/C(=C\c1ccc(C(=O)Nc2nc(-c3ccc(F)c(F)c3)cs2)cc1)C(N)=O
3. CC(C(=O)O)=C(C)c1ccc(C(=O)Nc2nc(-c3ccc(Cl)c(Cl)c3)cs2)cc1

Response:
37 nM
367 nM
529 nM

Parameters: items (list). Returns: EC50 for each item.
1. CSCCCNC(=O)/C(C)=C/c1ccc(C(=O)Nc2nc(-c3ccc(Cl)c(Cl)c3)cs2)cc1
2. O=C(O)/C(Cl)=C/c1ccc(C(=O)Nc2nc(-c3cccc(F)c3)cs2)cc1

Response:
123 nM
274 nM

----------
Biological target: human TPO receptor (hTPOR) (Homo sapiens, UniProt P40238)
Construct: expressed in transfected cells; host or cells: BaF-B03 (murine IL-3 dependent cell line)
Sequence (P40238 26-635): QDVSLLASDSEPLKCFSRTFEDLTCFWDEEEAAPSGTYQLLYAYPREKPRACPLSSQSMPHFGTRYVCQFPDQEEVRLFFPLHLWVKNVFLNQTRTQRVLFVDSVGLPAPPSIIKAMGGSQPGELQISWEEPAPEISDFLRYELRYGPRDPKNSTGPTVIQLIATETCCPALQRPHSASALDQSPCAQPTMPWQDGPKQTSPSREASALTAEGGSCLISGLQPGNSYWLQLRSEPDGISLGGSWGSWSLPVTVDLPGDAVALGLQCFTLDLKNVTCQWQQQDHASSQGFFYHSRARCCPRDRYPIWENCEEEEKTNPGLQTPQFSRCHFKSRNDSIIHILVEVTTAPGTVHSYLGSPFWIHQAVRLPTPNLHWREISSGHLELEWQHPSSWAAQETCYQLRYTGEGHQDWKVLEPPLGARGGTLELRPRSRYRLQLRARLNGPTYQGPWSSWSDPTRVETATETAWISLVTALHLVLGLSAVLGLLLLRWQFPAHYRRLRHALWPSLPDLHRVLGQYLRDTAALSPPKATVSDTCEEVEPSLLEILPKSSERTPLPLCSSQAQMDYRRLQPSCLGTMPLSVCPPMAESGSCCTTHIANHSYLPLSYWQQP
Assay: Proliferation of TPO dependent BaF/hTPOR cells, WST-1, thrombopoietic activity ED50 (Test Example 3)
Format: cell-based
Conditions: 20 h incubation then WST-1 4 h, absorbance at 450 nm
Assignment: determine reported pEC50 for the given compounds.
Answers are plain numbers, as −log10 of the molar value.

The following compounds have reported results that may help.
Entry under test: O=C(O)/C(Cl)=C/c1ccc(C(=O)Nc2nc(-c3cc(F)c(F)cc3F)cs2)cc1 [Compound A-62] . Its pEC50 was 7.00

Entry under test: O=C(O)/C(Cl)=C/c1ccc(C(=O)Nc2nc(-c3c(F)cccc3F)cs2)cc1 [Compound A-51] . Its pEC50 was 6.25

Entry under test: O=C(O)/C(Cl)=C/c1ccc(C(=O)Nc2nc(-c3ccc(F)c(F)c3)cs2)cc1 [Compound A-36] . Its pEC50 was 7.02

Entry under test: CCCCCc1cccc2c1CCc1sc(NC(=O)c3ccc(/C=C(\Cl)C(=O)O)cc3)nc1-2 [Compound J-15] . Its pEC50 was 7.96

Entry under test: O=C(O)/C(Cl)=C/c1ccc(C(=O)Nc2nc(-c3cc(F)c(F)c(F)c3F)cs2)cc1 [Compound A-77] . Its pEC50 was 6.96

Parameters: items (list). Returns: pEC50 for each item.
1. C/C(=C\c1ccc(C(=O)Nc2nc(-c3ccc(Cl)c(Cl)c3)cs2)cc1)C(=O)NC1CC1 [Compound B-36]
2. O=C(O)C(F)=Cc1ccc(C(=O)Nc2nc(-c3cccc(OC(F)(F)F)c3)cs2)cc1 [Compound A-45]
3. O=C(O)/C(Cl)=C/c1ccc(C(=O)Nc2nc(-c3ccc(C(F)(F)F)cc3)cs2)cc1 [Compound A-40]
4. CC/C(=C\c1ccc(C(=O)Nc2nc(-c3ccc(Cl)c(Cl)c3)cs2)cc1)C(=O)NC [Compound B-18]
5. CCOC(=O)C(Cl)=Cc1ccc(C(=O)Nc2nc(-c3ccc(Cl)c(Cl)c3)cs2)cc1 [Compound A-11]
6. O=C(O)/C(Cl)=C/c1ccc(C(=O)Nc2nc(-c3cccc(-c4ccccc4)c3F)cs2)cc1 [Compound A-80]

Response:
[6.79, 6.69, 7.33, 6.82, 7.47, 7.18]

Parameters: items (list). Returns: pEC50 for each item.
1. O=C(O)C(F)=Cc1ccc(C(=O)Nc2nc(-c3ccc(C(F)(F)F)cc3)cs2)cc1 [Compound A-46]
2. CCOC(=O)/C(Cl)=C/c1ccc(C(=O)Nc2nc(-c3cccc(OC(F)(F)F)c3)cs2)cc1 [Compound A-31]
3. CNC(=O)/C(C)=C/c1ccc(C(=O)Nc2nc(-c3ccc(F)c(F)c3)cs2)cc1 [Compound B-26]
4. C/C(=C\c1ccc(C(=O)Nc2nc(-c3cccc(OC(F)(F)F)c3)cs2)cc1)C(=O)O [Compound A-20]
5. O=C(O)/C(Cl)=C/c1ccc(C(=O)Nc2nc(-c3ccccc3F)cs2)cc1 [Compound A-50]
6. C/C(=C\c1ccc(C(=O)Nc2nc(-c3ccc(Cl)c(Cl)c3)cs2)cc1)C(=O)NC1CCCC1 [Compound B-38]
7. C/C(=C\c1ccc(C(=O)Nc2nc(-c3ccc(Cl)c(Cl)c3)cs2)cc1)C(=O)NC(C)c1ccccc1 (stereo not drawn) [Compound B-33]

Response:
1. 6.58
2. 7.25
3. 6.46
4. 6.21
5. 6.95
6. 6.62
7. 6.43

Parameters: items (list). Returns: pEC50 for each item.
1. COc1cccc(-c2csc(NC(=O)c3ccc(/C=C(\Cl)C(=O)O)cc3)n2)c1F [Compound A-82]
2. Cc1ccc(C)c(-c2csc(NC(=O)c3ccc(/C=C(\Cl)C(=O)O)cc3)n2)c1 [Compound A-87]
3. CCNC(=O)/C(=C/c1ccc(C(=O)Nc2nc(-c3ccc(Cl)c(Cl)c3)cs2)cc1)CC [Compound B-19]

Response:
1: 6.70; 2: 6.15; 3: 6.82
